Molecular target: human serum albumin (Homo sapiens, UniProt P02768)
Construct: purchased Daicel, Tokio, Japan Chiralpak HSA column (50 × 3 mm, 5 μm, H13 h-2433)
Sequence (P02768 25-609): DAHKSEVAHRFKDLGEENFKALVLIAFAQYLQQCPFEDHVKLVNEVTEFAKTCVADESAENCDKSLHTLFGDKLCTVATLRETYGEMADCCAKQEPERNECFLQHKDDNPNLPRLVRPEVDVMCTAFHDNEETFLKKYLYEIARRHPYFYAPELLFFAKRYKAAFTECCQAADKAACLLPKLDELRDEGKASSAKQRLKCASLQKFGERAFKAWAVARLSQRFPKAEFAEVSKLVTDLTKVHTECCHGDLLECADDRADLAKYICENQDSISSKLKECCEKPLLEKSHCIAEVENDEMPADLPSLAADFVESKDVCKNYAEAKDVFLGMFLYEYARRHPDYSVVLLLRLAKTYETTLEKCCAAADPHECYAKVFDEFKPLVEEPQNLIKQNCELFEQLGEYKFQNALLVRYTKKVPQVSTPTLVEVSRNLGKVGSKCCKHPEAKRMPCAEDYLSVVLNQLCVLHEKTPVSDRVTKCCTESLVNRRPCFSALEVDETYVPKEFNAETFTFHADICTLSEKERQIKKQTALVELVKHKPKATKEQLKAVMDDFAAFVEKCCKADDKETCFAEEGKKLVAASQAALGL
Experiment: human serum albumin binding by HPAC
Type: in vitro ADME
Details: non-radiolabeled compounds, n=1
Experimental: High performance affinity chromatography (HPAC) was used to determine representative values for HSA binding of the ligands and their references, since it can influence the distribution and pharmacokinetics of radiopharmaceuticals.[43],[44] HSA binding studies were performed according to a previously published procedure, using RP-HPLC and HSA which is solid-phase fixed on a Chiralpak HSA column (50 × 3 mm, 5 μm, H13 h-2433, Daicel, Tokio, Japan).[51] A flow rate of 0.5 mL/min at RT was used. […]
Property Label: HSA binding (HPAC) (%)
Field: numeric (%). Do not append units.

>>> measurement("C[C@@H](O)[C@H](NC(=O)[C@@H]1CSSC[C@H](NC(=O)[C@@H](Cc2ccccc2)NC(=O)COCCOCCNC(=O)[C@@H](CNC(=O)CN2CCN(CC(=O)O)CCN(CC(=O)O)CCN(CC(=O)O)CC2)NC(=O)COCCOCCNC(=O)c2cc(CN)cc([Si](F)(C(C)(C)C)C(C)(C)C)c2)C(=O)N[C@@H](Cc2ccc(O)cc2)C(=O)N[C@H](Cc2c[nH]c3ccccc23)C(=O)N[C@@H](CCCCN)C(=O)N[C@@H]([C@@H](C)O)C(=O)N1)C(=O)O [[natLu]Lu-(SiFA)SeFe-rhTATE3, metal not drawn]")
98
>>> measurement("CC(=O)N[C@@H]1[C@@H](O)[C@H](O)[C@@H](CO)O[C@H]1NC(=O)C[C@H](NC(=O)CON=CCCC[N+](C)(C)Cc1ccc([Si](F)(C(C)(C)C)C(C)(C)C)cc1)C(=O)N[C@@H](CC(=O)O)C(=O)N[C@@H](CC(=O)O)C(=O)NCCOCCOCC(=O)N[C@H](Cc1ccccc1)C(=O)N[C@H]1CSSC[C@@H](C(=O)N[C@H](C(=O)O)[C@@H](C)O)NC(=O)[C@H]([C@@H](C)O)NC(=O)[C@H](CCCCN)NC(=O)[C@@H](Cc2c[nH]c3ccccc23)NC(=O)[C@H](Cc2ccc(O)cc2)NC1=O [SiFAlin-TATE, reference compound]")
92

Okay, next one:
For record C[C@@H](O)[C@H](NC(=O)[C@@H]1CSSC[C@H](NC(=O)[C@@H](Cc2ccccc2)NC(=O)CN2CCN(CC(=O)O)CCN(CC(=O)NC[C@@H](NC(=O)c3cc(CNC(=O)C[C@@H](N)C(=O)O)cc([Si](F)(C(C)(C)C)C(C)(C)C)c3)C(=O)O)CCN(CC(=O)O)CC2)C(=O)N[C@@H](Cc2ccc(O)cc2)C(=O)N[C@H](Cc2c[nH]c3ccccc23)C(=O)N[C@@H](CCCCN)C(=O)N[C@@H]([C@@H](C)O)C(=O)N1)C(=O)O [[natGa]Ga-(SiFA)SeFe-rhTATE2, metal not drawn] the listed HSA binding (HPAC) is 99

* * *

Assay: stability of 18F-labeled model bioconjugates, physiological conditions
Type: physicochemical
Details: buffer, pH 7.4; physiological conditions, 18F-labeled, Radio-TLC; read-out: Half-life, pH 7.4, 37 °C
Use Yes when the recorded half-life is no lower than 40 min; use No when it is lower.

>>> category_label("CC(C)(C)[Si](F)(c1cc(CNC(=O)[C@@H](N)CCCCN)cc(C(=O)NCC(=O)N[C@@H](Cc2ccc(O)cc2)C(=O)O)c1)C(C)(C)C")
"No"
>>> category_label("CC(C)(C)[Si](F)(c1cc(CNC(=O)[C@@H](N)CCCCN)cc(C(=O)NCC(=O)N[C@@H](CCCCN)C(=O)O)c1)C(C)(C)C")
"No"
>>> category_label("CC(C)(C)[Si](F)(c1cc(CNC(=O)[C@@H](N)CCC(=O)O)cc(C(=O)NCC(=O)N[C@@H](Cc2ccc(O)cc2)C(=O)O)c1)C(C)(C)C")
"No"
>>> category_label("CC(C)(C)[Si](F)(c1cc(CNC(=O)[C@@H](N)CCCCN)cc(C(=O)NCC(=O)N[C@@H](CC(=O)O)C(=O)O)c1)C(C)(C)C")
"Yes"
>>> category_label("CC(C)(C)[Si](F)(c1cc(CNC(=O)[C@@H](N)CCC(=O)O)cc(C(=O)NCC(=O)N[C@@H](CCCCN)C(=O)O)c1)C(C)(C)C")
"Yes"

Okay, now this molecule:
Query block: State whether the measured half-life reaches 40 min, counting equality as reaching it, for `CC(C)(C)[Si](F)(c1cc(CNC(=O)[C@@H](N)CCC(=O)O)cc(C(=O)NCC(=O)N[C@@H](CC(=O)O)C(=O)O)c1)C(C)(C)C`
Result block: Yes
